- testedTarget: UniProt:P11229
- Sequence (P11229 whole entry): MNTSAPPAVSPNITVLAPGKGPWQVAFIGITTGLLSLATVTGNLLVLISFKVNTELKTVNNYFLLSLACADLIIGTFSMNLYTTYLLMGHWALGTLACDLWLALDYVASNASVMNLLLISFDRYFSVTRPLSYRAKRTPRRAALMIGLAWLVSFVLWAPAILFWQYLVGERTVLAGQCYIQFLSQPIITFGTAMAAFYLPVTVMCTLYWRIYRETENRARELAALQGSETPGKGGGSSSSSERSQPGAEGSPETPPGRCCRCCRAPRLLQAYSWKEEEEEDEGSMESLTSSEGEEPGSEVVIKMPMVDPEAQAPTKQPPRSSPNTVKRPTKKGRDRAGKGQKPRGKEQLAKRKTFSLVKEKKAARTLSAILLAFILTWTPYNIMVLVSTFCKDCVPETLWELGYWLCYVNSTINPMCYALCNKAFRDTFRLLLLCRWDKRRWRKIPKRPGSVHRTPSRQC
- assayComment: mAChR M1 cell-based functional assay (calcium mobilization, Fluo-4, FDSS)
- conditionParameters: CHO-K1 cells stably expressing hM1; calcium flux; concentration-dependent increase in the EC20 acetylcholine response
Can you tell me EC50 for the items I'm about to list?

[ask] Jot down EC50 (UniProt:P11229) of Cn1cc2cc(-c3ccc(CN4Cc5ncsc5C4=O)c(F)c3)ccc2n1 .
[reply] 1850 nM

[ask] Given Cn1cc2cc(-c3cc(F)c(CN4Cc5ncsc5C4=O)c(F)c3)ccc2n1 , report its EC50 on UniProt:P11229.
[reply] 370 nM

[ask] Provide measured EC50 on UniProt:P11229 for Cn1cc2c(-c3cc(F)c(CN4Cc5cnn(CC6CCCO6)c5C4=O)c(F)c3)cccc2n1 (centres unmarked) please.
[reply] 920 nM

[ask] Give EC50 for this entry on UniProt:P11229: Cc1nn(C)cc1-c1cc(F)c(CN2Cc3ccn(CC4CCCO4)c3C2=O)c(F)c1 (centres unmarked)
[reply] 3450 nM

[ask] Write EC50 of Cn1cc2cccc(-c3cc(F)c(CN4Cc5cnn(CC6CCCO6)c5C4=O)c(F)c3)c2n1 (centres unmarked) ; system used: UniProt:P11229
[reply] 6890 nM

[ask] Name the recorded EC50 of Cn1cc2c(-c3cc(F)c(CN4Cc5ccsc5C4=O)c(F)c3)cccc2n1 , assay system UniProt:P11229.
[reply] 1260 nM

[ask] Lab note: record EC50 of Cc1nn(C)cc1-c1cc(F)c(CN2Cc3cnn(CC4CCCO4)c3C2=O)c(F)c1 (centres unmarked) tested on UniProt:P11229.
[reply] 3220 nM

[ask] # assay system UniProt:P11229: give EC50 of Cn1cc2cc(-c3ccc(CN4Cc5sccc5C4=O)c(F)c3)ccc2n1
[reply] 2780 nM
